Overview of recorded protein stability index for various variants
B1: FAM189A2 (parent)
chain: NLAGFILGCQGAQFVSSVPRCDLV

- Variants of: B1
- assay comment: protein stability index of a GFP-peptide fusion (GPS, HEK-293T) (PSI 1-6); higher = more stable;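 note: lentivirally expressed fusions sorted by FACS into six bins by GFP to DsRed ratio, PSI derived from sequencing read proportions per bin multiplied by bin number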
- condition info: c terminus: a fixed tail appended

[[record]]
mutation_id = "P19F"
assay_readout = "protein stability index"
result = 3.04


Identify measured protein stability index associated with "S16G"
3.41

Identify measured protein stability index associated with "L2N"
1.97

Identify measured protein stability index associated with "I6N"
2.11

Identify measured protein stability index associated with "V24D"
1.76

Identify measured protein stability index associated with "L2C"
1.31
